Experiment: activity coefficient (dimensionless); of the first substance listed, at infinite dilution; xn = mol fraction of the nth substance listed
Details: 358.15 K; 101.33 kPa; Liquid; Chromatography; x1 = 0
Lab note: compare activity coefficient with 30, writing condition met if less and condition not met if equal or more.

Please review the following examples before continuing.
molecule: CCCCCO [pentan-1-ol] + N#C[N-]C#N.OCCC[n+]1ccccc1
label: condition met
//
molecule: CCC(C)O (centres undefined) [butan-2-ol] + N#C[N-]C#N.OCCC[n+]1ccccc1
label: condition met
//
molecule: O [water] + N#C[N-]C#N.OCCC[n+]1ccccc1
label: condition met
//
molecule: CCC(=O)OC [methyl propanoate] + N#C[N-]C#N.OCCC[n+]1ccccc1
label: condition met
//
molecule: C1CCCCCCC1 [cyclooctane] + N#C[N-]C#N.OCCC[n+]1ccccc1
label: condition not met
//
molecule: Cc1ccc(C)cc1 [1,4-dimethylbenzene] + N#C[N-]C#N.OCCC[n+]1ccccc1
label: condition met
//
molecule: c1ccncc1 [pyridine] + N#C[N-]C#N.OCCC[n+]1ccccc1
label: condition met
//
molecule: C=CCCCCCC [oct-1-ene] + N#C[N-]C#N.OCCC[n+]1ccccc1
label: condition not met

Q: # TODO verify activity coefficient < 30 strictly for this molecule: CO [methanol] + N#C[N-]C#N.OCCC[n+]1ccccc1
Ans: condition met

Q: # TODO verify activity coefficient < 30 strictly for this molecule: C=CCCCCCCCC [1-decene] + N#C[N-]C#N.OCCC[n+]1ccccc1
Ans: condition not met

Q: # TODO verify activity coefficient < 30 strictly for this molecule: CCOCC [diethyl ether] + N#C[N-]C#N.OCCC[n+]1ccccc1
Ans: condition met

Q: # TODO verify activity coefficient < 30 strictly for this molecule: CCOC(C)=O [ethyl acetate] + N#C[N-]C#N.OCCC[n+]1ccccc1
Ans: condition met

Q: # TODO verify activity coefficient < 30 strictly for this molecule: CCCCO [butan-1-ol] + N#C[N-]C#N.OCCC[n+]1ccccc1
Ans: condition met

Q: # TODO verify activity coefficient < 30 strictly for this molecule: CCCCCCCCCC [decane] + N#C[N-]C#N.OCCC[n+]1ccccc1
Ans: condition not met

Cited source: the NIST ThermoML archive (doi:10.1016/j.jct.2017.03.004)
